system: PC-3; assay: Antiproliferative activity against human PC3 cell line at 5 uM by MTT assay; assay type: functional
Kindly return label 1 if reported inhibition at 5 µM is no lower than 40%; return label 0 if it is lower.

Assess whether reported inhibition at 5 µM for COc1cc(C(=O)N/N=C/c2c(Cl)cccc2Cl)cc(OC)c1OC sits at 40% or higher.
label 1

What do we get for COc1cc(C(=O)N/N=C/c2ccc(Cl)c([N+](=O)[O-])c2)cc(OC)c1OC ?
label 1

What do we get for COc1cc(C2=NN(C(C)=O)C(c3cc(Cl)cc(Cl)c3)O2)cc(OC)c1OC (stereo not given) ?
label 1

What do we get for COc1cc(C(=O)N/N=C/c2ccc(Cl)c(Cl)c2)cc(OC)c1OC ?
label 0

What do we get for COc1cc(C2=NN(C(C)=O)C(c3ccc(C(F)(F)F)cc3)O2)cc(OC)c1OC (stereo not given) ?
label 0
